// reported EC50 (read off the curve) per item
Biological target: T1, human BCMA on NCI-H929, OPM2 and Raji cells (human, UniProt Q02223 1-184)
T1 construct: endogenous BCMA of human cell lines; also called TNFRSF17; CD269
T1 chain: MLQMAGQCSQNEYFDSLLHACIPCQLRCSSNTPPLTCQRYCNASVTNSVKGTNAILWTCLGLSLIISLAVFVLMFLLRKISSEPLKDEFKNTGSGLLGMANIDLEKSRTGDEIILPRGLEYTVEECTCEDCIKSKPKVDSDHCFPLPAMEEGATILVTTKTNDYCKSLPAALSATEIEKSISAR
Assay: flow cytometry on NCI-H929 cells (BCMA high), fluorescent anti-human IgG1 secondary antibody, MFI against antibody conc.

Below, 3 binders whose answers are already recorded.
Binder | EC50 (read off the curve)
AB215 (antibody, human IgG1, kappa, V domains shown, IgG1 kappa) VH: QVQLVQSGAEVKKPGSSVKVSCKASGGTFTNYWIHWVRQAPGQGLEWMGGTYRSHSTTYYNQKFKSRVTITADKSTSTAYMELSSLRSEDTAVYYCARGAVYHGYDVIDNWGQGTLVTVSS VL: DIQMTQSPSSLSASVGDRVTITCRASQSISSYLNWYQQKPGKAPKLLIYATSNLQIGVPSRFSGSGSGTDFTLTISSLQPEDFATYYCQQYRRIPWTFGQGTKLEIKR | ~7 nM
AB213 (antibody, human IgG1, kappa, V domains shown, IgG1 kappa) VH: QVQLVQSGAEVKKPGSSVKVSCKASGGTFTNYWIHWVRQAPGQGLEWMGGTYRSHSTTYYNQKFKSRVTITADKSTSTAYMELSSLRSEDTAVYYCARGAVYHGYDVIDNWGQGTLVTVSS VL: DIQMTQSPSSLSASVGDRVTITCRASQSISSYLNWYQQKPGKAPKLLIYATSNLQIGVPSRFSGSGSGTDFTLTISSLQPEDFATYYCQQFRRLPWTFGQGTKLEIKR | ~4 nM
AB217 (antibody, human IgG1, kappa, V domains shown, IgG1 kappa) VH: QVQLVQSGAEVKKPGSSVKVSCKASGGTFTNYWIHWVRQAPGQGLEWMGATYRSHSDTYYAQKYKSRVTITADKSTSTAYMELSSLRSEDTAVYYCARGAVYHGYDVIDNWGQGTLVTVSS VL: DIQMTQSPSSLSASVGDRVTITCRASQSISSYINWYQQKPGKAPKLLIYATSNLQSGVPSRFSGSGSGTDFTLTISSLQPEDFATYYCQQYRRIPWTFGQGTKLEIKR | ~3 nM

Then this binder:
Prompt: Given AB214 (antibody, human IgG1, kappa, V domains shown, IgG1 kappa) VH: QVQLVQSGAEVKKPGSSVKVSCKASGGTFSNYWIHWVRQAPGQGLEWMGATYRSQSDTYYNQKYKSRVTITADKSTSTAYMELSSLRSEDTAVYYCARGAVYHGYDVIDNWGQGTLVTVSS VL: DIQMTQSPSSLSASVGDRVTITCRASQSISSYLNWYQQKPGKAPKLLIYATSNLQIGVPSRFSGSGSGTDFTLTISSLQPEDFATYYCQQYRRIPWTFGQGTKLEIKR , state its recorded EC50 (read off the curve).
Response: ~3 nM
